# Tested on: Rattus norvegicus
# method.notes: Evaluated for salidiuretic activity measured as sodium ion excretion in Rat, administered orally at a dose of 50 mg/kg
# Format: functional, Urine
# Parameters: unit not given beside the values
# conditions.used: route oral

[
  {
    "compound": "COc1c(C(C)(C)C)cc(I)c(O)c1CN.Cl",
    "censor.symbol": "=",
    "Diuretic activity": 2.4
  },
  {
    "compound": "CCCc1cc(I)c(O)c(CN)c1.Cl",
    "censor.symbol": "=",
    "Diuretic activity": 1.8
  },
  {
    "compound": "CCCCc1ccc(O)c(CN)c1.Cl",
    "censor.symbol": "<",
    "Diuretic activity": 0.3
  },
  {
    "compound": "COc1c(Cl)c(OC)c(CN)c(O)c1I.Cl",
    "censor.symbol": "=",
    "Diuretic activity": 3.3
  },
  {
    "compound": "CCc1c(Cl)c(C)c(Cl)c(O)c1CN.Cl",
    "censor.symbol": "=",
    "Diuretic activity": 1.2
  },
  {
    "compound": "C=CCc1cc(CN)c(O)c(OC)c1.Cl",
    "censor.symbol": "=",
    "Diuretic activity": 2.4
  },
  {
    "compound": "Cl.NCc1c(O)cc(Cl)c(Cl)c1Cl",
    "censor.symbol": "=",
    "Diuretic activity": 3.3
  },
  {
    "compound": "Cl.NCc1cc(I)cc(I)c1O",
    "censor.symbol": "=",
    "Diuretic activity": 2.4
  },
  {
    "compound": "Cc1c(Cl)c(C)c(CN)c(O)c1CN.Cl.Cl",
    "censor.symbol": "<",
    "Diuretic activity": 0.2
  },
  {
    "compound": "CC(C)(C)c1cc(CN)c(O)c(C(F)(F)F)c1.Cl",
    "censor.symbol": "=",
    "Diuretic activity": 3.3
  },
  {
    "compound": "Cl.NCc1c(O)c(Cl)cc(Cl)c1O",
    "censor.symbol": "=",
    "Diuretic activity": 1.2
  },
  {
    "compound": "COc1c(Cl)c(O)c(CN)c(OC)c1Cl.Cl",
    "censor.symbol": "=",
    "Diuretic activity": 3.6
  },
  {
    "compound": "CC(C)(C)c1cc(CN)c(O)c(Oc2ccc(Cl)cc2)c1.Cl",
    "censor.symbol": "=",
    "Diuretic activity": 1.8
  },
  {
    "compound": "CCC(C)c1cc(I)c(O)c(CN)c1.Cl (stereo not drawn)",
    "censor.symbol": "=",
    "Diuretic activity": 2.4
  },
  {
    "compound": "CCCc1cc(Cl)c(O)c(CN)c1.Cl",
    "censor.symbol": "=",
    "Diuretic activity": 3.3
  },
  {
    "compound": "CCc1c(Cl)c(C)c(CN)c(O)c1Cl.Cl",
    "censor.symbol": "=",
    "Diuretic activity": 3.6
  },
  {
    "compound": "Cc1c(Cl)c(C(C)(C)C)c(Cl)c(O)c1CN.Cl",
    "censor.symbol": "=",
    "Diuretic activity": 2.4
  },
  {
    "compound": "CC(C)c1cc(Cl)c(O)c(CN)c1.Cl",
    "censor.symbol": "=",
    "Diuretic activity": 3.6
  },
  {
    "compound": "Br.Cc1c(C)c(CN)c(O)c(Cl)c1Cl",
    "censor.symbol": "=",
    "Diuretic activity": 3.6
  },
  {
    "compound": "CCSc1cc(C(C)(C)C)cc(CN)c1O.Cl",
    "censor.symbol": "=",
    "Diuretic activity": 1.2
  },
  {
    "compound": "CC(C)(C)c1c(Cl)cc(CN)c(O)c1Cl.Cl",
    "censor.symbol": "=",
    "Diuretic activity": 2.4
  },
  {
    "compound": "CCc1cc(Cl)c(O)c(CN)c1.Cl",
    "censor.symbol": "=",
    "Diuretic activity": 3.3
  },
  {
    "compound": "NCc1cc(Cl)cc(Cl)c1O",
    "censor.symbol": "=",
    "Diuretic activity": 1.8
  },
  {
    "compound": "Cl.NCc1c(O)c(C(F)(F)F)cc(Cl)c1Cl",
    "censor.symbol": "=",
    "Diuretic activity": 3.3
  },
  {
    "compound": "CSc1cc(C(C)(C)C)cc(CN)c1O.Cl",
    "censor.symbol": "=",
    "Diuretic activity": 3.6
  },
  {
    "compound": "NS(=O)(=O)c1cc(C(=O)O)c(NCc2ccco2)cc1Cl [FUROSEMIDE]",
    "censor.symbol": "=",
    "Diuretic activity": 2.4
  },
  {
    "compound": "CCC(C)(C)c1cc(I)c(O)c(CN)c1.Cl",
    "censor.symbol": "=",
    "Diuretic activity": 2.4
  },
  {
    "compound": "Cc1c(Br)c(C)c(CN)c(O)c1Br.Cl",
    "censor.symbol": "=",
    "Diuretic activity": 3.3
  }
]
